Biological target: human Nav 1.8 (Homo sapiens)
Sequence (Q9Y5Y9 whole entry, looked up, the tested form may be a part): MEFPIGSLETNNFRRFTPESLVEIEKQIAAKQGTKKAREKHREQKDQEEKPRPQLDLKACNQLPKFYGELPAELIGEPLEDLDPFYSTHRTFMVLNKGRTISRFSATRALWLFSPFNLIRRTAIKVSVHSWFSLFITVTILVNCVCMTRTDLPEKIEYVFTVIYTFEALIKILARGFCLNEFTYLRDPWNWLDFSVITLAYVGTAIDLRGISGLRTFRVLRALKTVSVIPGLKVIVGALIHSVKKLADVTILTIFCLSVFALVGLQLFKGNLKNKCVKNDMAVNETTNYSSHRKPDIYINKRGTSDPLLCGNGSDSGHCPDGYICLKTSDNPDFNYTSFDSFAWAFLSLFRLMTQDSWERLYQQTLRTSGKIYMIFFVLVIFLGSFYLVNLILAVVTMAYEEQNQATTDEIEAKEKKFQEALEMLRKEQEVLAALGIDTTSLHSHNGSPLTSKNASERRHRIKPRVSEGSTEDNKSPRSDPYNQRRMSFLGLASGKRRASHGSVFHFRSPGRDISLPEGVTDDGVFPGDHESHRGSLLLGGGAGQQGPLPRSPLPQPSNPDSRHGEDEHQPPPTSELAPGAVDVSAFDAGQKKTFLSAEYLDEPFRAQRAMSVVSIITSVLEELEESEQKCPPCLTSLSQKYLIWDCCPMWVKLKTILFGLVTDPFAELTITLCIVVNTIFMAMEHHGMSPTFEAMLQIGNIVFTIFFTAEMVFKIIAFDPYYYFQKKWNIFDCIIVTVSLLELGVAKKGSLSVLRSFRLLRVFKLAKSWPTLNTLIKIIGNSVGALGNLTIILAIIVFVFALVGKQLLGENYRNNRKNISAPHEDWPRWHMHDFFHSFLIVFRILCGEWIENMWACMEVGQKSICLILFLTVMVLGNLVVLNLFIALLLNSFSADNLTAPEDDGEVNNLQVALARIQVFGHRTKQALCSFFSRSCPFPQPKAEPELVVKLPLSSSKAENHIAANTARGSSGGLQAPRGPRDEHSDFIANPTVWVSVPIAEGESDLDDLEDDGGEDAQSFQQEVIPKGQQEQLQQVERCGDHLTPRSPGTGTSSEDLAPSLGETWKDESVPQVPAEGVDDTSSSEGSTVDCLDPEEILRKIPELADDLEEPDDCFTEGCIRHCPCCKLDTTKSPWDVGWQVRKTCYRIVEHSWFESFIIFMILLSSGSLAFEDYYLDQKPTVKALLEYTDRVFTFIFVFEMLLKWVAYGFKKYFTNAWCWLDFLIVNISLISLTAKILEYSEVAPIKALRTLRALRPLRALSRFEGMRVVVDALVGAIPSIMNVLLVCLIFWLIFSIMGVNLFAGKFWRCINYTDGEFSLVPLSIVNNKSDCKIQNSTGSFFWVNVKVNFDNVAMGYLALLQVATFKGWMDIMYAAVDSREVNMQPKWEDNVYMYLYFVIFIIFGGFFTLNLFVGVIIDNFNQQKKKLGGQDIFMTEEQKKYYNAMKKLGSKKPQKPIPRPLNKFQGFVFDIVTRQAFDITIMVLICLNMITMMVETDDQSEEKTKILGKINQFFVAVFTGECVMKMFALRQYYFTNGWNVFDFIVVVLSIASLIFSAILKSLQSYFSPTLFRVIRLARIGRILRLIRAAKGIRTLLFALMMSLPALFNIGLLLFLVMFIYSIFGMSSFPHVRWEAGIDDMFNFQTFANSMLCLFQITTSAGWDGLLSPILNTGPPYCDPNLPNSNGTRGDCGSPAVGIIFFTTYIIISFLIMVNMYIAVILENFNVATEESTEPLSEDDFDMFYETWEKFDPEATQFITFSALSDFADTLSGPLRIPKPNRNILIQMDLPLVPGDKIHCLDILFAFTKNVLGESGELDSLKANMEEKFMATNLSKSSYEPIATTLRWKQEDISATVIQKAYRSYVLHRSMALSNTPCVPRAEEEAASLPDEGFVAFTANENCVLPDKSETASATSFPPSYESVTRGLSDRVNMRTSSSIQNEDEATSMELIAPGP
Assay: E-VIPR assay detecting and measuring Nav inhibition (HEK cells expressing truncated human Nav 1.8)
Type: cell-based
Conditions: in the Absence of Human Serum in the E-VIPR Assay; read-out: IC50
The following molecules are listed with their measured IC50 values.

| Molecule | IC50 |
| --- | --- |
| COc1c([C@H]2[C@H](C(=O)Nc3ccnc(C(N)=O)c3)O[C@@](C)(C(F)(F)F)[C@H]2C)cc(Cl)c(F)c1F | < 10 nM |
| Cc1c([C@@H]2[C@@H](C)[C@@](C)(C(F)(F)F)O[C@H]2C(=O)Nc2ccnc(C(N)=O)c2)ccc(F)c1F (stereo in doubt) | 10 to 100 nM |
| COc1c([C@H]2[C@H](C(=O)Nc3ccc(F)c(C(N)=O)c3)O[C@@](C)(C(F)(F)F)[C@H]2C)ccc(F)c1F | < 10 nM |
| Cc1c([C@@H]2[C@@H](C(=O)Nc3ccnc(C(N)=O)c3)O[C@@](C)(C(F)(F)F)[C@H]2C)ccc(F)c1F (stereo in doubt) | 100 to 1000 nM |
| COc1c([C@H]2[C@H](C(=O)Nc3cc(C(N)=O)ncc3C)O[C@@](C)(C(F)(F)F)[C@H]2C)ccc(F)c1F | < 10 nM |
| C=Cc1c([C@H]2[C@H](C(=O)Nc3ccnc(C(N)=O)c3)O[C@@](C)(C(F)(F)F)[C@H]2C)ccc(F)c1F | < 10 nM |
| Cc1c([C@@H]2[C@@H](C(=O)Nc3ccnc(C(N)=O)c3)O[C@](C)(C(F)(F)F)[C@@H]2C)ccc(F)c1F (stereo in doubt) | > 1000 nM |
| COc1c([C@H]2[C@H](C(=O)Nc3ccnc(C(N)=O)c3)O[C@@](C)(C(F)(F)F)[C@H]2C)cccc1C(F)(F)F (single isomer, unassigned) | < 10 nM |
| COc1nc(C(F)F)ccc1[C@@H]1[C@@H](C(=O)Nc2ccnc(C(N)=O)c2)O[C@](C)(C(F)(F)F)[C@@H]1C (stereo in doubt) | > 1000 nM |
| COc1c([C@H]2[C@H](C(=O)Nc3cncc(C(N)=O)n3)O[C@@](C)(C(F)(F)F)[C@H]2C)ccc(F)c1F | 10 to 100 nM |
| COc1c([C@H]2[C@H](C(=O)Nc3cccc(C(N)=O)n3)O[C@@](C)(C(F)(F)F)[C@H]2C)ccc(F)c1F | 10 to 100 nM |
| COc1c([C@H]2[C@H](C(=O)Nc3cc(F)nc(C(N)=O)c3)O[C@@](C)(C(F)(F)F)[C@H]2C)ccc(F)c1F | < 10 nM |
| COc1c([C@@H]2[C@@H](C(=O)Nc3ccnc(C(N)=O)c3)O[C@](C)(C(F)(F)F)[C@@H]2C)cccc1C(F)(F)F (single isomer, unassigned) | 100 to 1000 nM |
| COc1c([C@H]2[C@H](C(=O)Nc3cncc(C(N)=O)c3)O[C@@](C)(C(F)(F)F)[C@H]2C)ccc(F)c1F | < 10 nM |
| COc1nc(C(F)F)ccc1[C@H]1[C@H](C(=O)Nc2ccnc(C(N)=O)c2)O[C@@](C)(C(F)(F)F)[C@H]1C (stereo in doubt) | 10 to 100 nM |
| COc1c([C@H]2[C@H](C(=O)Nc3cc(C(N)=O)ncc3F)O[C@@](C)(C(F)(F)F)[C@H]2C)ccc(F)c1F | < 10 nM |
| Cc1c([C@H]2[C@H](C(=O)Nc3ccnc(C(N)=O)c3)O[C@@](C)(C(F)(F)F)[C@H]2C)ccc(F)c1F (stereo in doubt) | < 10 nM |
| COc1c([C@H]2[C@H](C(=O)Nc3ccnc(C(N)=O)c3)O[C@@](C)(C(F)(F)F)[C@H]2C)ccc(C(F)F)c1F (single isomer, unassigned) | < 10 nM |
